# Tested on: DU145
# Procedure Summary: Euclidean distance of Cell Painting phenotypic profile (signed KS, 77 features) to DMSO centroid (dimensionless distance); 5 or 10 uM (library dependent); higher = stronger phenotypic change vs DMSO (phenoactivity)
# Experimental Context: 48 h
Structures can show the parent of a compound that is named as a salt.
The label depends only on Euclidean distance: 1 if it is at least 1, -1 if it is smaller.

For orientation, consider the following solved cases.
[[record]]
compound = "CC(=O)CCCCn1c(=O)c2c(ncn2C)n(C)c1=O"
group = 1

[[record]]
compound = "Oc1c(Cl)cc(Cl)c(Cl)c1Cc1c(O)c(Cl)cc(Cl)c1Cl"
group = 1

[[record]]
compound = "O=C1OC(c2ccc(O)cc2)(c2ccc(O)cc2)c2ccccc21"
group = 1

[[record]]
compound = "COC(=O)CCC(=O)CN [Methyl Aminolevulinate Hydrochloride]"
group = -1

[[record]]
compound = "Cc1ccc(C(=O)C(C)CN2CCCCC2)cc1 (stereo not drawn) [Tolperisone HCl]"
group = 1

[[record]]
compound = "CCn1nc(C(=O)O)c(=O)c2cc3c(cc21)OCO3"
group = -1


# check: Euclidean distance of CN1CCC[C@@H]1CCO[C@](C)(c1ccccc1)c1ccc(Cl)cc1 [Clemastine Fumarate] is greater than or equal to 1
1

# check: Euclidean distance of CC(=O)N(O)CCCCCNC(=O)CCC(=O)N(O)CCCCCNC(=O)CCC(=O)N(O)CCCCCN [Deferoxamine mesylate] is greater than or equal to 1
1

# check: Euclidean distance of O=C(O)CCCC[C@@H]1CCSS1 (racemic) is greater than or equal to 1
1

# check: Euclidean distance of `O=C(N[C@H](CO)[C@H](O)c1ccc([N+](=O)[O-])cc1)C(Cl)Cl` is greater than or equal to 1
1

# check: Euclidean distance of C[C@H](NCc1ccc(OCc2cccc(F)c2)cc1)C(N)=O [Safinamide Mesylate] is greater than or equal to 1
-1

# check: Euclidean distance of `CC(C)Cn1cnc2c(N)nc3ccccc3c21` is greater than or equal to 1
-1

# check: Euclidean distance of `CCN(CC)CCNC(=O)c1c(C)[nH]c(/C=C2\C(=O)Nc3ccc(-c4csc(-c5ccccc5)n4)cc32)c1C` is greater than or equal to 1
1

# check: Euclidean distance of `O=c1cc(-c2cccc3c2Sc2ccccc2S3)oc(N2CCOCC2)c1` is greater than or equal to 1
-1

# check: Euclidean distance of `CCOC(=O)c1ccc(NC2CCCCC2)c(N)c1` is greater than or equal to 1
1

* * *

# Tested on: 786-O
# Procedure Summary: Euclidean distance of Cell Painting phenotypic profile (signed KS, 77 features) to DMSO centroid (dimensionless distance); 5 or 10 uM (library dependent); higher = stronger phenotypic change vs DMSO (phenoactivity)
# Experimental Context: 48 h
Counter-ions that a name gives are not always drawn.
I'd be grateful if you could share measured Euclidean distance for these entries.
Numbers only.

Field: example entries. Status: answers known.
[[record]]
molecule = "O=c1ccn(C2OC(COP(=O)(O)O)C(O)C2O)c(=O)[nH]1 (stereo not drawn) [Uridine 5'-monophosphate]"
recorded_value = 1.18

[[record]]
molecule = "CNCC[C@H](Oc1cccc2ccccc12)c1cccs1 [Duloxetine HCl]"
recorded_value = 1.15

[[record]]
molecule = "O=C(c1cc(Cc2n[nH]c(=O)c3ccccc23)ccc1F)N1CCN(C(=O)C2CC2)CC1"
recorded_value = 1.56

[[record]]
molecule = "CCN(CCO)CCCC(C)Nc1ccnc2cc(Cl)ccc12 (stereo not drawn) [Hydroxychloroquine Sulfate]"
recorded_value = 3.48

[[record]]
molecule = "CC(=O)[O-].[K+] [Potassium acetate]"
recorded_value = 1.42

[[record]]
molecule = "NCC[C@H](O)C(=O)N[C@@H]1C[C@H](N)[C@@H](O[C@H]2O[C@H](CN)[C@@H](O)[C@H](O)[C@H]2O)[C@H](O)[C@H]1O[C@H]1O[C@H](CO)[C@@H](O)[C@H](N)[C@H]1O [Amikacin hydrate]"
recorded_value = 1.52

[[record]]
molecule = "C#C[C@]1(O)CC[C@H]2[C@@H]3CCc4cc(OC5CCCC5)ccc4[C@H]3CC[C@@]21C [Quinestrol]"
recorded_value = 1.6


Now for a further molecule.
Output Euclidean distance of Oc1cccc(O)c1 [Resorcinol]
1.3
